Cited source for all entries: PubChem BioAssay AID1159580

# test-summary: chemical genetic growth profiling, strain panel (AID 1159580);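 further: tested at 20 µM; growth read once vehicle control cultures reached saturation at 30 °C; 1 = growth at the plate median or of vehicle wells; lower values mean less growth of the strain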
# measurement-context: S. cerevisiae deletion strains, growth OD, locus YGL167C, strain pmr1, hits give low values
Hit rate of the full screen: of about 5,500 compounds, about 2,000 (36%) were called active. Inconclusive results (about 18%) are left out. Some of the results follow.
Friendly reminder: normalized growth below 1 is met, at or above is not met.

As a guide, the following entries are already answered.
molecule: CC1(C)CCC2(C(=O)O)CCC3(C)C(=CCC4C5(C)CCC(O)C(C)(C)C5C(O)CC43C)C2C1 (configuration not stated)
class-assignment: not met

molecule: COc1c(-c2coc3cc4c(cc3c2=O)CC(O)C(C)(C)O4)ccc2c1C=CC(C)(C)O2 (configuration not stated)
class-assignment: met

molecule: O=c1[nH]cc(F)c(=O)[nH]1
class-assignment: not met

-- ask Is normalized growth of CC(C)=CCCC1(C)C=Cc2c(O)c3c(c(CC=C(C)C)c2O1)OC12C(=CC4CC1C(C)(C)OC2(C/C=C(/C)C(=O)O)C4=O)C3=O (configuration not stated) strictly below 1?
-- reply met

-- ask Is normalized growth of CC(CC(=O)C1OC1(C)C)C1C(=O)CC2(C)C3=CCC4C(C)(C)C(OC5OCC(O)C(O)C5O)CCC45CC35C(O)CC12C (configuration not stated) strictly below 1?
-- reply not met

* * *

# test-summary: chemical genetic growth profiling, strain panel (AID 1159580);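 further: tested at 20 µM; growth read once vehicle control cultures reached saturation at 30 °C; 1 = growth at the plate median or of vehicle wells; lower values mean less growth of the strain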
# measurement-context: S. cerevisiae deletion strains, growth OD, locus YPL106C, strain sse1, hits give low values
Hit rate of the full screen: of about 5,500 compounds, about 2,000 (36%) were called active. Not shown: some 18% with an inconclusive outcome. The list shows a part of the results.
The entries below are paired with their reported normalized growth.
Response field accepts a number only; no unit should be typed.

For orientation, consider the following solved cases.
compound: Cc1cn([C@H]2C[C@H](N=[N+]=[N-])[C@@H](CO)O2)c(=O)[nH]c1=O
measurement: 0.94
//
compound: CCN1C[C@]2(OC(=O)c3ccccc3NC(C)=O)CCC(OC)[C@]34C1[C@H](CC23)[C@@]1(O)CC(OC)[C@H]2CC4C1(O)[C@H]2OC (stereo not given in full)
measurement: 0.923
//
compound: CCOP(=S)(OCC)Oc1nc(Cl)c(Cl)cc1Cl
measurement: 0.933
//
compound: C#C[C@]1(O)CCC2C3CCC4=CC(=O)CC[C@@H]4C3CC[C@@]21CC (stereo not given in full)
measurement: 1.06
//
compound: CCCOc1ccccc1-c1nc2n[nH]nc2c(=O)[nH]1
measurement: 1.02
//
compound: COC(=O)Nc1nc2ccc(Sc3ccccc3)cc2[nH]1
measurement: 1.08

Lab note: measured normalized growth of CC(C)(C#N)O[C@@H]1O[C@H](CO)[C@@H](O)[C@H](O)[C@H]1O was 0.985

Lab note: measured normalized growth of COC(=O)Nc1nc2ccc(S(=O)c3ccccc3)cc2[nH]1 (stereo not given) was 0.99

Lab note: measured normalized growth of CO[C@@]12[C@@H]3NC3CN1C1=C(C(=O)C(N)=C(C)C1=O)[C@@H]2COC(N)=O (stereo not given in full) was 0.951

Lab note: measured normalized growth of NC(N)=N/N=C/c1c(Cl)cccc1Cl was 0.921

* * *

# test-summary: chemical genetic growth profiling, strain panel (AID 1159580);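 further: tested at 20 µM; growth read once vehicle control cultures reached saturation at 30 °C; 1 = growth at the plate median or of vehicle wells; lower values mean less growth of the strain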
# measurement-context: S. cerevisiae deletion strains, growth OD, locus YPL204W, strain HRR25
Hit rate of the full screen: of about 5,500 compounds, about 2,000 (36%) were called active. Roughly 18% stayed inconclusive and do not appear here. No stated cut-off is given here; in the data, active means normalized growth mostly below about 0.91 (no sharp cut-off); inconclusive means no clear call, values can overlap the other calls; inactive means mostly above about 0.92. This is one part of the list.
Hi there, use one of these labels in your reply, thanks! active, inactive

As a guide, the following entries are already answered.
compound: Fc1ccc(NC(=S)N2CCCN(Cc3ccc(Cl)cc3Cl)CC2)cc1
class-assignment: inactive
--
compound: O=C(NCCNc1ncc(Cl)cc1C(F)(F)F)C(F)(F)Sc1ccccc1
class-assignment: inactive
--
compound: O=C(CSCc1csc2ccccc12)Nc1ccc(F)c(Cl)c1
class-assignment: inactive

-- ask Identify the outcome logged in this assay for the compound shown: Cc1nc(-c2ccccn2)[nH]c(=O)c1Cc1c(Cl)cccc1Cl
-- reply inactive

-- ask Identify the outcome logged in this assay for the compound shown: O=[N+]([O-])c1cnc(Sc2nnc(SCc3cccc(C(F)(F)F)c3)s2)s1
-- reply active

-- ask Identify the outcome logged in this assay for the compound shown: Fc1cccc(Cl)c1CSc1n[nH]c(-c2cc(C(F)(F)F)cc(C(F)(F)F)c2)n1
-- reply inactive

-- ask Identify the outcome logged in this assay for the compound shown: CCCc1nc(-c2ccccn2)[nH]c(=O)c1CC1CC1
-- reply inactive

-- ask Identify the outcome logged in this assay for the compound shown: O=C(NCCNc1ncc(C(F)(F)F)cc1Cl)C(F)(F)Sc1ccccc1
-- reply inactive
